targetOrTestSystem: AT1R (Homo sapiens)
Sequence (P30556 1-359): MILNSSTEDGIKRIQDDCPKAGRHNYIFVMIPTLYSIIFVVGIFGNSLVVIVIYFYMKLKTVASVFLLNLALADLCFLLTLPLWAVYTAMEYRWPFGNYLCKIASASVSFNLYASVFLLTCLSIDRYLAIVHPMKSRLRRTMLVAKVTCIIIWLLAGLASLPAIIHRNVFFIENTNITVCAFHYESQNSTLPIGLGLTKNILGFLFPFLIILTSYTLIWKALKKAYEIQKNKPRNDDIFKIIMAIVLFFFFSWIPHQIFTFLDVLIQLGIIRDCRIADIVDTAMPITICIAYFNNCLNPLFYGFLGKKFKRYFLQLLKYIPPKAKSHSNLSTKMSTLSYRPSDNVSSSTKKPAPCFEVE
protocolNotes: Gαq activation BRET (GABY sensor) in HEK293 cells expressing AT1R
Format: cell-based
Set-up: expressed in transfected cells; host or cells: HEK293 cells, transient PEI transfection
runConditions: HEK293/AT1R, GABY BRET sensor; response of the ligand at 10 μM, normalised to AngII
propertyMeasured: Emax Gαq (% AngII)
Put your answer as a value accompanied by its unit after it.

CCCC[C@H](NC(=O)[C@@H]1CCCN1C(=O)[C@H](Cc1c[nH]cn1)NC(=O)[C@@H](NC(=O)[C@H](Cc1ccc(O)cc1)NC(=O)[C@@H](NC(=O)[C@H](CCCNC(=N)N)NC(=O)[C@@H](N)CC(=O)O)C(C)C)[C@@H](C)CC)C(=O)O [compound 2] has a reported Emax Gαq (% AngII) of 36 % AngII

C=CCOc1ccc(C[C@H](NC(=O)[C@@H]2CCCN2C(=O)[C@H](Cc2c[nH]cn2)NC(=O)[C@@H](NC(=O)[C@H](Cc2ccc(O)cc2)NC(=O)[C@@H](NC(=O)[C@H](CCCNC(=N)N)NC(=O)[C@@H](N)CC(=O)O)C(C)C)[C@@H](C)CC)C(=O)O)cc1 [compound 10] has a reported Emax Gαq (% AngII) of 48 % AngII

CC[C@H](C)[C@H](NC(=O)[C@H](Cc1ccc(O)cc1)NC(=O)[C@@H](NC(=O)[C@H](CCCNC(=N)N)NC(=O)[C@@H](N)CC(=O)O)C(C)C)C(=O)N[C@@H](Cc1c[nH]cn1)C(=O)N1CCC[C@H]1C(=O)N[C@@H](Cc1cccc(O)c1)C(=O)O [24b] has a reported Emax Gαq (% AngII) of 49 % AngII
